Tested on: SARS-CoV-2
Assay: microbe, parasite or virus in culture
Assay type: cell-based
Conditions: Severe acute respiratory syndrome coronavirus 2, 72 h; VeroE6/TMPRSS2 cells, 100 TCID50/well, 3 days; class symbols
Observation type: EC50

See these solved cases before continuing.
Sample smiles: Cn1cnc(Cn2c(=O)nc(Nc3cc4cn(CCO)nc4cc3Cl)n(Cc3cc(F)c(F)c(F)c3)c2=O)n1
Target of assay: SARS-CoV-2
Assay result: 1 to 10 µM

Sample smiles: Cc1nc2cc(Cl)c(Nc3nc(=O)n(-c4cncc5ccccc45)c(=O)n3Cc3cc(F)c(F)c(F)c3)cc2n1C
Target of assay: SARS-CoV-2
Assay result: 1 to 10 µM

Sample smiles: Cc1cncc(-n2c(=O)nc(Nc3cc4cn(C)nc4cc3F)n(Cc3ccc(F)c(C#N)c3)c2=O)c1
Target of assay: SARS-CoV-2
Assay result: < 1 µM

Consider the record given below.
Ask | Need EC50 of `Cn1cc2cc(Nc3nc(=O)n(-c4cncc5ccccc45)c(=O)n3Cc3ccc(F)c(C#N)c3)c(F)cc2n1` , thanks.
Reply | < 1 µM
